# Test system: UMC-11
# measurement.protocol: relative viability (nuclei count vs DMSO), 5 days (fraction); higher = more cells survive
# measurement.conditions: first compound 1.265 µM
parameter.measured: relative viability

[
  {
    "compound": "O=C(O)c1ccc(-c2c[nH]c3ncc(-c4ccccc4)cc23)cc1C1CCCC1 + CS(=O)(=O)N1CCN(Cc2cc3nc(-c4cccc5[nH]ncc45)nc(N4CCOCC4)c3s2)CC1 [Pictilisib] (partner 1 µM)",
    "observed": 0.775
  },
  {
    "compound": "O=C(O)c1ccc(-c2c[nH]c3ncc(-c4ccccc4)cc23)cc1C1CCCC1 + COc1cccc2cc(-c3nc([C@H]4CC[C@H](C(=O)O)CC4)n4ncnc(N)c34)[nH]c12 [OSI-027] (partner 0.5 µM)",
    "observed": 0.375
  },
  {
    "compound": "O=C(O)c1ccc(-c2c[nH]c3ncc(-c4ccccc4)cc23)cc1C1CCCC1 + Nc1ncn([C@H]2C[C@H](O)[C@@H](CO)O2)c(=O)n1 [Decitabine] (partner 2 µM)",
    "observed": 0.626
  },
  {
    "compound": "O=C(O)c1ccc(-c2c[nH]c3ncc(-c4ccccc4)cc23)cc1C1CCCC1 + CC(C)C[C@H](NC(=O)[C@H](Cc1ccccc1)NC(=O)c1cnccn1)B(O)O [Bortezomib] (partner 0.002 µM)",
    "observed": 0.519
  },
  {
    "compound": "O=C(O)c1ccc(-c2c[nH]c3ncc(-c4ccccc4)cc23)cc1C1CCCC1 + O=C(c1cc(Cc2n[nH]c(=O)c3ccccc23)ccc1F)N1CCN(C(=O)C2CC2)CC1 [Olaparib] (partner 8 µM)",
    "observed": 0.398
  },
  {
    "compound": "O=C(O)c1ccc(-c2c[nH]c3ncc(-c4ccccc4)cc23)cc1C1CCCC1 + O=C(CCCCCCC(=O)Nc1ccccc1)NO [Vorinostat] (partner 1 µM)",
    "observed": 0.219
  },
  {
    "compound": "O=C(O)c1ccc(-c2c[nH]c3ncc(-c4ccccc4)cc23)cc1C1CCCC1 + Cc1cc(Nc2cc(N3CCN(C)CC3)nc(Sc3ccc(NC(=O)C4CC4)cc3)n2)n[nH]1 [Tozasertib] (partner 0.1 µM)",
    "observed": 0.191
  },
  {
    "compound": "O=C(O)c1ccc(-c2c[nH]c3ncc(-c4ccccc4)cc23)cc1C1CCCC1 + CC(=O)Nc1cccc(-n2c(=O)n(C3CC3)c(=O)c3c(Nc4ccc(I)cc4F)n(C)c(=O)c(C)c32)c1 [Trametinib] (partner 0.02 µM)",
    "observed": 0.641
  },
  {
    "compound": "O=C(O)c1ccc(-c2c[nH]c3ncc(-c4ccccc4)cc23)cc1C1CCCC1 + CC1(C)CCC(c2ccc(Cl)cc2)=C(CN2CCN(c3ccc(C(=O)NS(=O)(=O)c4ccc(N[C@H](CCN5CCOCC5)CSc5ccccc5)c(S(=O)(=O)C(F)(F)F)c4)cc3)CC2)C1 [Navitoclax] (partner 0.5 µM)",
    "observed": 0.222
  }
]

* * *

# Test system: NCI-H1355
# measurement.protocol: relative viability (nuclei count vs DMSO), 5 days (fraction); higher = more cells survive
# measurement.conditions: first compound 0.08 µM
Label condition met when relative viability < 1; otherwise condition not met.

[
  {
    "compound": "C=C1C(=O)O[C@@H](CCCCCCCC)[C@@H]1C(=O)O [C-75] + CC1(C)CCC(c2ccc(Cl)cc2)=C(CN2CCN(c3ccc(C(=O)NS(=O)(=O)c4ccc(N[C@H](CCN5CCOCC5)CSc5ccccc5)c(S(=O)(=O)C(F)(F)F)c4)cc3)CC2)C1 [Navitoclax] (partner 0.5 µM)",
    "measurement.target": "NCI-H1355",
    "class.assignment": "condition met"
  },
  {
    "compound": "C=C1C(=O)O[C@@H](CCCCCCCC)[C@@H]1C(=O)O [C-75] + Cc1nc(Nc2ncc(C(=O)Nc3c(C)cccc3Cl)s2)cc(N2CCN(CCO)CC2)n1 [Dasatinib] (partner 0.075 µM)",
    "measurement.target": "NCI-H1355",
    "class.assignment": "condition met"
  },
  {
    "compound": "Oc1nc(-c2ccc(C(F)(F)F)cc2)nc2c1CSCC2 [XAV939] + CC(C)C[C@H](NC(=O)[C@H](Cc1ccccc1)NC(=O)c1cnccn1)B(O)O [Bortezomib] (partner 0.002 µM)",
    "measurement.target": "NCI-H1355",
    "class.assignment": "condition not met"
  },
  {
    "compound": "Oc1nc(-c2ccc(C(F)(F)F)cc2)nc2c1CSCC2 [XAV939] + Cc1nc(Nc2ncc(C(=O)Nc3c(C)cccc3Cl)s2)cc(N2CCN(CCO)CC2)n1 [Dasatinib] (partner 0.075 µM)",
    "measurement.target": "NCI-H1355",
    "class.assignment": "condition met"
  },
  {
    "compound": "C=C1C(=O)O[C@@H](CCCCCCCC)[C@@H]1C(=O)O [C-75] + CS(=O)(=O)N1CCN(Cc2cc3nc(-c4cccc5[nH]ncc45)nc(N4CCOCC4)c3s2)CC1 [Pictilisib] (partner 1 µM)",
    "measurement.target": "NCI-H1355",
    "class.assignment": "condition met"
  }
]

* * *

# relative viability per record follows
# Test system: BEN
# measurement.protocol: relative viability (nuclei count vs DMSO), 5 days (fraction); higher = more cells survive
# measurement.conditions: first compound 0.005 µM
parameter.measured: relative viability

[
  {
    "molecule": "CC1(C)CCC(c2ccc(Cl)cc2)=C(CN2CCN(c3ccc(C(=O)NS(=O)(=O)c4ccc(N[C@H](CCN5CCOCC5)CSc5ccccc5)c(S(=O)(=O)C(F)(F)F)c4)cc3)CC2)C1 [Navitoclax] + C[C@]1(O)C[C@@H](c2nc(-c3ccc4ccc(-c5ccccc5)nc4c3)c3c(N)nccn32)C1 [Linsitinib] (partner 1 µM)",
    "observed": 0.841
  },
  {
    "molecule": "CC1(C)CCC(c2ccc(Cl)cc2)=C(CN2CCN(c3ccc(C(=O)NS(=O)(=O)c4ccc(N[C@H](CCN5CCOCC5)CSc5ccccc5)c(S(=O)(=O)C(F)(F)F)c4)cc3)CC2)C1 [Navitoclax] + N=C(N)NC(=N)NCCc1ccccc1 [Phenformin] (partner 250 µM)",
    "observed": 0.246
  },
  {
    "molecule": "CC1(C)CCC(c2ccc(Cl)cc2)=C(CN2CCN(c3ccc(C(=O)NS(=O)(=O)c4ccc(N[C@H](CCN5CCOCC5)CSc5ccccc5)c(S(=O)(=O)C(F)(F)F)c4)cc3)CC2)C1 [Navitoclax] + Nc1nc2[nH]cc(CCc3ccc(C(=O)N[C@@H](CCC(=O)O)C(=O)O)cc3)c2c(=O)[nH]1 [Pemetrexed] (partner 0.2 µM)",
    "observed": 0.781
  },
  {
    "molecule": "CC1(C)CCC(c2ccc(Cl)cc2)=C(CN2CCN(c3ccc(C(=O)NS(=O)(=O)c4ccc(N[C@H](CCN5CCOCC5)CSc5ccccc5)c(S(=O)(=O)C(F)(F)F)c4)cc3)CC2)C1 [Navitoclax] + C[C@@H](Oc1cc(-c2cnn(C3CCNCC3)c2)cnc1N)c1c(Cl)ccc(F)c1Cl [Crizotinib] (partner 1 µM)",
    "observed": 0.878
  },
  {
    "molecule": "CC1(C)CCC(c2ccc(Cl)cc2)=C(CN2CCN(c3ccc(C(=O)NS(=O)(=O)c4ccc(N[C@H](CCN5CCOCC5)CSc5ccccc5)c(S(=O)(=O)C(F)(F)F)c4)cc3)CC2)C1 [Navitoclax] + O=C(c1cc(Cc2n[nH]c(=O)c3ccccc23)ccc1F)N1CCN(C(=O)C2CC2)CC1 [Olaparib] (partner 8 µM)",
    "observed": 1.07
  }
]

* * *

# Test system: NCI-H1993
# measurement.protocol: relative viability (nuclei count vs DMSO), 5 days (fraction); higher = more cells survive
# measurement.conditions: first compound 0.4 µM
parameter.measured: relative viability

[
  {
    "compound": "O=C(O)c1ccc(-c2c[nH]c3ncc(-c4ccccc4)cc23)cc1C1CCCC1 + NC(=O)Nc1cc(-c2cccc(F)c2)sc1C(=O)N[C@H]1CCCNC1 [AZD7762] (partner 0.2 µM)",
    "observed": 0.832
  },
  {
    "compound": "O=C(O)c1ccc(-c2c[nH]c3ncc(-c4ccccc4)cc23)cc1C1CCCC1 + CC(C)C[C@H](NC(=O)[C@H](Cc1ccccc1)NC(=O)c1cnccn1)B(O)O [Bortezomib] (partner 0.002 µM)",
    "observed": 1.14
  },
  {
    "compound": "O=C(O)c1ccc(-c2c[nH]c3ncc(-c4ccccc4)cc23)cc1C1CCCC1 + Cc1nc(NC(=O)N2CCC[C@H]2C(N)=O)sc1-c1ccnc(C(C)(C)C(F)(F)F)c1 [Alpelisib] (partner 2 µM)",
    "observed": 0.68
  },
  {
    "compound": "O=C(O)c1ccc(-c2c[nH]c3ncc(-c4ccccc4)cc23)cc1C1CCCC1 + CC(=O)Nc1cccc(-n2c(=O)n(C3CC3)c(=O)c3c(Nc4ccc(I)cc4F)n(C)c(=O)c(C)c32)c1 [Trametinib] (partner 0.02 µM)",
    "observed": 0.42
  }
]
